# ASSAY EXPLANATION: Plasma protein binding, equilibrium dialysis
# Format: in vitro ADME
# MEASUREMENT CONTEXT: human
QUANTITY KIND: fraction unbound

Just so you know, measured fraction unbound for "CCOc1c(Cl)cc(C(=O)Nc2ccc(C(=O)O)c(C)c2)cc1OC(C)C" came out at 0.07

====

# ASSAY EXPLANATION: Stability and intrinsic clearance in cryopreserved hepatocytes
# MEASUREMENT CONTEXT: mouse
QUANTITY KIND: hepatocyte CLint at 30 μM

Notebook: "CCOc1c(Cl)cc(C(=O)Nc2ccc(C(=O)O)c(C)c2)cc1OC(C)C" , hepatocyte CLint at 30 μM read as < 9 µL/min/1e6 cells

====

# ASSAY EXPLANATION: Intrinsic clearance in liver microsomes
# Assay type: in vitro ADME
# MEASUREMENT CONTEXT: liver microsomes; human microsomes, 37 °C, NADPH, 45 min; mean of 5
Threshold check on microsomal CLint: strictly below 9 µL/min/mg is 1.0; on or above 9 µL/min/mg is 0.0.

Example cases with answers are listed next.
> print(dat)
                                   molecule  class.name
1  CC(C)Oc1cc(C(=O)Nc2ccc(C(=O)O)c(F)c2)cc(Cl)c1OC(C)C [Compound 43]         1.0
2  CCOc1c(Cl)cc(C(=O)Nc2ccc(C(=O)O)c(C)c2)cc1Cl [Compound 18]         0.0
3  CCOc1c(Cl)cc(C(=O)Nc2ccc(C(=O)O)cc2)cc1OC(C)C [Compound 49]         0.0

QUERY: Bench note: check whether CCOc1c(Cl)cc(C(=O)Nc2ccc(C(=O)O)c(F)c2)cc1OC(C)C [Compound 54] shows microsomal CLint below 9 µL/min/mg
RESULT: 1.0

QUERY: Is microsomal CLint strictly under 9 µL/min/mg for the entry CCOc1cc(C(=O)Nc2ccc(C(=O)O)c(C)c2)cc(Cl)c1OC(C)C [Compound 57] ?
RESULT: 1.0

QUERY: Lab note: confirm whether the reported microsomal CLint for this molecule is below 9 µL/min/mg, equality not counting. molecule: O=C(O)c1ccc(NC(=O)c2cc(Cl)c(OC3CCCC3)c(Cl)c2)cc1 [Compound 15]
RESULT: 0.0

QUERY: Please check: microsomal CLint for COc1c(Cl)cc(C(=O)Nc2ccc(C(=O)O)c(C)c2)cc1OC(C)C [Compound 55] , strictly under 9 µL/min/mg or not?
RESULT: 1.0

QUERY: # TODO verify microsomal CLint < 9 µL/min/mg strictly for this molecule: CCOc1c(Cl)cc(C(=O)Nc2ccc(C(=O)O)c(C)c2)cc1OC(C)C [Compound 56]
RESULT: 1.0

====

For each record, write down the corresponding microsomal CLint.
# ASSAY EXPLANATION: Intrinsic clearance in liver microsomes
# Assay type: in vitro ADME
# MEASUREMENT CONTEXT: mouse microsomes, 37 °C, NADPH, 45 min; mean of 5
One number for each entry, in µL/min/mg.

> print(dat)
                                 mol.smiles  units.label  quantitative.readout
1  CCOc1c(OC(C)C)cc(C(=O)Nc2ccc(C(=O)O)cc2)cc1OC(C)C    µL/min/mg                     8

Consider "Cc1cc(NC(=O)c2cc(Cl)c(OC(C)(C)C)c(OC(C)(C)C)c2)ccc1C(=O)O" . Its measured microsomal CLint is 36.2

====

# ASSAY EXPLANATION: in vivo
# MEASUREMENT CONTEXT: C57, mouse, iv, 1 mg/kg
QUANTITY KIND: clearance

Lookup result for CCOc1c(Cl)cc(C(=O)Nc2ccc(C(=O)O)c(C)c2)cc1OC(C)C [Compound 56] ; measured clearance: 0.282 L/h/kg

====

# ASSAY EXPLANATION: PK studies in rats
# Format: in vivo, Sprague-Dawley rats
# MEASUREMENT CONTEXT: iv 0.5 mg/kg, n = 4
Decide using rat pK Cl alone. Strictly below 10 mL/kg/min: Y. Equal to or above 10 mL/kg/min: N.

Solved entries:
> print(dat)
                                 mol.smiles  class.name
1  COc1c(Cl)cc(C(=O)Nc2ccc(C(=O)O)c(F)c2)cc1OC(C)C           N
2  CCOc1c(OC(C)C)cc(C(=O)Nc2ccc(C(=O)O)cc2)cc1OC(C)C           Y
3  Cc1cc(NC(=O)c2cc(Cl)c(OC(C)C)c(OC(C)C)c2)ccc1C(=O)O           Y
4  CCOc1c(Cl)cc(C(=O)Nc2ccc(C(=O)O)c(F)c2)cc1OC(C)C           N
5  O=C(O)c1ccc(NC(=O)c2cc(Cl)c(OC3CCCC3)c(Cl)c2)cc1           Y
6  CCOc1c(Cl)cc(C(=O)Nc2ccc(C(=O)O)c(C)c2)cc1Cl           Y

QUERY: Bench note: check whether "CCOc1c(Cl)cc(C(=O)Nc2ccc(C(=O)O)c(C)c2)cc1OC(C)C" shows rat pK Cl below 10 mL/kg/min
RESULT: Y

QUERY: Check if rat pK Cl falls below 10 mL/kg/min for "COc1c(Cl)cc(C(=O)Nc2ccc(C(=O)O)cc2)cc1OC(C)C" .
RESULT: Y

====

# ASSAY EXPLANATION: PK studies in rats
# Assay type: in vivo, Sprague-Dawley rats
# MEASUREMENT CONTEXT: male, Sprague-Dawley, in vivo; rat, 10 mg/kg po vs 0.5 mg/kg iv, n = 4; read-out: rat pK F%
QUANTITY KIND: bioavailability (%)
Numbers only, in %.

// sample CCOc1c(OC(C)C)cc(C(=O)Nc2ccc(C(=O)O)cc2)cc1OC(C)C [Compound 31] , its bioavailability was 81

====

# ASSAY EXPLANATION: Stability and intrinsic clearance in cryopreserved hepatocytes
# MEASUREMENT CONTEXT: human
QUANTITY KIND: hepatocyte CLint at 30 μM

Entry "CCOc1c(Cl)cc(C(=O)Nc2ccc(C(=O)O)c(C)c2)cc1OC(C)C" — recorded hepatocyte CLint at 30 μM = < 3 µL/min/1e6 cells

====

# ASSAY EXPLANATION: Stability and intrinsic clearance in cryopreserved hepatocytes
# MEASUREMENT CONTEXT: mouse
QUANTITY KIND: half-life at 30 μM

Notebook: CCOc1c(Cl)cc(C(=O)Nc2ccc(C(=O)O)c(C)c2)cc1OC(C)C [Compound 56] , half-life at 30 μM read as > 300 min

====

# TARGET SYSTEM: human RXR β (Homo sapiens, UniProt P28702)
# Construct: Panlabs Eurofins Pharma Discovery Services (CRO)
# Sequence (P28702 whole entry): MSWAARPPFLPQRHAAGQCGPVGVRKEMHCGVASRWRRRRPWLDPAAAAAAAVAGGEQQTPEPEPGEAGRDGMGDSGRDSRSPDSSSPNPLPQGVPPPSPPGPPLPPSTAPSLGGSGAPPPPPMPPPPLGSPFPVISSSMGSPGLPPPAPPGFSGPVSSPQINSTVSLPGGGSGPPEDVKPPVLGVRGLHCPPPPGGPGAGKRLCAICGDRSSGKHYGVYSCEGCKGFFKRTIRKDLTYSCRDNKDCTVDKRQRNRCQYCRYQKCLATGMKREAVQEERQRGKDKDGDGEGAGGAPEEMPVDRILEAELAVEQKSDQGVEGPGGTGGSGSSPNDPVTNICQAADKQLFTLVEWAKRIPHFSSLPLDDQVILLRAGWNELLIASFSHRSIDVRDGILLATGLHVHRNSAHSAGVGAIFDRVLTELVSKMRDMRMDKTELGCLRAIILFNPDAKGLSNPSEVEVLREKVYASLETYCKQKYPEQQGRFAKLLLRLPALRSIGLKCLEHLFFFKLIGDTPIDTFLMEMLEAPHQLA
# ASSAY EXPLANATION: Retinoid X Receptor radioligand binding assay, [3H] 9-cis-retinoic acid
# MEASUREMENT CONTEXT: human recombinant receptor
QUANTITY KIND: IC50

So for CCOc1c(Cl)cc(C(=O)Nc2ccc(C(=O)O)c(C)c2)cc1OC(C)C [Compound 56] , the logged IC50 turned out to be > 10 µM

====

# ASSAY EXPLANATION: Stability and intrinsic clearance in cryopreserved hepatocytes
# MEASUREMENT CONTEXT: human
QUANTITY KIND: half-life at 1 μM

Summary for this compound, "CCOc1c(Cl)cc(C(=O)Nc2ccc(C(=O)O)c(C)c2)cc1OC(C)C" : half-life at 1 μM is > 7.5 h

====

# TARGET SYSTEM: mouse RAR beta receptor (Mus musculus, UniProt P22605)
# Sequence (P22605 210-444 limits assumed): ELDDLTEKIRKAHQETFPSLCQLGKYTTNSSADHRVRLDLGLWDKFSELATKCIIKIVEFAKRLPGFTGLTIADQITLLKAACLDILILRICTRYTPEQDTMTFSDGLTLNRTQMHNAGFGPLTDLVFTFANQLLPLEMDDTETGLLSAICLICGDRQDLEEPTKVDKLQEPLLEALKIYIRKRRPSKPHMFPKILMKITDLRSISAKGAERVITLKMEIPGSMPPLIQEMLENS
# MEASUREMENT CONTEXT: ratio of relative EC50s RARβ/RARα
QUANTITY KIND: β/α ratio
Numbers only.

> print(dat)
                                 mol.smiles  quantitative.readout
1  CCOc1cc(C(=O)Nc2ccc(C(=O)O)cc2)cc(Cl)c1OC(C)C                   3.1
2  COc1c(Cl)cc(C(=O)Nc2ccc(C(=O)O)c(C)c2)cc1OC(C)C                   241
3  CCOc1c(Cl)cc(C(=O)Nc2ccc(C(=O)O)c(O)c2)cc1Cl                    37

I would be grateful if you could provide β/α ratio for each of the following entries.
1. CCOc1c(Cl)cc(C(=O)Nc2ccc(C(=O)O)c(F)c2)cc1OC(C)C
2. COc1c(Cl)cc(C(=O)Nc2ccc(C(=O)O)cc2)cc1Cl
3. COc1c(Cl)cc(C(=O)Nc2ccc(C(=O)O)c(F)c2)cc1OC(C)C
4. O=C(O)c1ccc(NC(=O)c2cc(Cl)c(OC3CCCC3)c(OC3CCCC3)c2)cc1
5. CCOc1c(Cl)cc(C(=O)Nc2ccc(C(=O)O)c(Cl)c2)cc1Cl

RESULT:
1: 487; 2: 318; 3: 609; 4: 32; 5: 64

Value of β/α ratio reported for the compound "CC(C)(C)Oc1cc(C(=O)Nc2ccc(C(=O)O)cc2)cc(Cl)c1OC(C)(C)C" is 44
